# EXPERIMENTAL_DETAILS: Antagonist activity determined in the [35S]GTP-gamma-S, binding assay relative to 50 nM U50,488
# Type: functional
MEASUREMENT_LABEL: IC50 (nM)
Write the answer as a number in nM, unit excluded.

Worked examples, 4 compounds total:
{"SMILES_DATA": "Oc1ccc2c3c1O[C@H]1c4[nH]c5c(c4C[C@@]4(O)[C@@H](C2)N(CC2CC2)CC[C@]314)C[C@@]1(O)[C@H]2Cc3ccc(O)c4c3[C@@]1(CCN2CC1CC1)[C@H]5O4", "IC50 (nM)": 4.6}
{"SMILES_DATA": "CC[C@H](C)[C@H](NC(=O)[C@H](CCCN=C(N)N)NC(=O)[C@H](CCCN=C(N)N)NC(=O)[C@H](CC(C)C)NC(=O)[C@H](Cc1ccccc1)NC(=O)CNC(=O)[C@H]1CCCN1C(=O)[C@@H](N)Cc1ccc(O)cc1)C(=O)N[C@@H](CCCN=C(N)N)C(=O)N1CCC[C@H]1C(=O)N[C@@H](CCCCN)C(N)=O", "IC50 (nM)": 940}
{"SMILES_DATA": "CC[C@H](C)[C@H](NC(=O)[C@H](CCCNC(=N)N)NC(=O)[C@H](CCCNC(=N)N)NC(=O)[C@H](CC(C)C)NC(=O)[C@H](Cc1ccccc1)NC(=O)CNC(=O)[C@@H]1CCCN1C(=O)[C@@H](N)Cc1ccc(O)cc1)C(=O)N[C@@H](CCCNC(=N)N)C(=O)N1CCC[C@H]1C(=O)N[C@@H](CCCCN)C(N)=O", "IC50 (nM)": 760}
{"SMILES_DATA": "CC[C@H](C)[C@H](NC(=O)[C@H](CCCN=C(N)N)NC(=O)[C@H](CCCN=C(N)N)NC(=O)[C@H](CC(C)C)NC(=O)[C@H](Cc1ccccc1)NC(=O)[C@H]1CCCN1C(=O)CNC(=O)[C@@H](N)Cc1ccc(O)cc1)C(=O)N[C@@H](CCCN=C(N)N)C(=O)N1CCC[C@H]1C(=O)N[C@@H](CCCCN)C(N)=O", "IC50 (nM)": 2200}

# input for lookup
Query block: Query: IC50; subject: CC[C@H](C)[C@H](NC(=O)[C@H](CCCN=C(N)N)NC(=O)[C@H](CCCN=C(N)N)NC(=O)[C@H](CC(C)C)NC(=O)[C@H](Cc1ccccc1)NC(=O)[C@@H]1CCCN1C(=O)CNC(=O)[C@@H](N)Cc1ccc(O)cc1)C(=O)N[C@@H](CCCN=C(N)N)C(=O)N1CCC[C@H]1C(=O)N[C@@H](CCCCN)C(N)=O
Result block: 380
